Listed next: entries and their corresponding koff.
MEASURED TARGET: T1, Siglec-8-Fc tagged protein (human Siglec-8 extracellular domain fused to an immunoglobulin Fc region) (human)
T1 construct: also called Siglec-8 Fc fusion protein
T1 sequence (chain, as listed by the source limits assumed): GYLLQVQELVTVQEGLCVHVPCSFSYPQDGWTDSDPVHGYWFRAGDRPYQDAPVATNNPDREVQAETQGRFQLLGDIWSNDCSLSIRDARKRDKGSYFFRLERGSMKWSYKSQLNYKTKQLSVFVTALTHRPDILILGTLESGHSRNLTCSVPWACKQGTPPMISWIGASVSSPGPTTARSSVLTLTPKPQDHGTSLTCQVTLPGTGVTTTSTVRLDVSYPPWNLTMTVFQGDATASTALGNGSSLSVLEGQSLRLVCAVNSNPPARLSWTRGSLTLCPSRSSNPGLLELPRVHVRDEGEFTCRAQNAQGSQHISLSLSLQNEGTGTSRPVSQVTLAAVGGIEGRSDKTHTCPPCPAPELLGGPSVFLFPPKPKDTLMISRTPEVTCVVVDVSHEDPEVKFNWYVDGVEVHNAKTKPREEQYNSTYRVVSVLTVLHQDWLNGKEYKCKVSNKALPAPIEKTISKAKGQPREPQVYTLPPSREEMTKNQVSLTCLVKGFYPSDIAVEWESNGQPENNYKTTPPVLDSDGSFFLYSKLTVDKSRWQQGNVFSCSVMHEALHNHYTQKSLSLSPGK
EXPERIMENT DESCRIPTION: BLI (Octet Red 384), Siglec-8-Fc on anti-human capture sensors, Fab in solution
Response body: numeric value in s⁻¹, unit text excluded.

Some binders with known koff results, for comparison:
binder="chimeric 2E2 Fab fragment (Fab, Fab made by papain digestion of the human IgG1 chimeric antibody) VH: QVQLKESGPGLVAPSQSLSITCTVSGFSLTIYGAHWVRQPPGKGLEWLGVIWAGGSTNYNSALMSRLSISKDNSKSQVFLKINSLQTDDTALYYCARDGSSPYYYSMEYWGQGTSVTVSS light: QIILTQSPAIMSASPGEKVSITCSATSSVSYMHWFQQKPGTSPKLWIYSTSNLASGVPVRFSGSGSGTSYSLTISRMEAEDAATYYCQQRSSYPFTFGSGTKLEIKRTVAAPSVFIFPPSDEQLKSGTASVVCLLNNFYPREAKVQWKVDNALQSGNSQESVTEQDSKDSTYSLSSTLTLSKADYEKHKVYACEVTHQGLSSPVTKSFNRGEC" result_type=koff readout_units=s⁻¹ reading=0.000556
binder="mouse 2E2 Fab fragment (Fab, Fab made by papain digestion of the murine IgG1; also called murine 2E2 Fab) VH: QVQLKESGPGLVAPSQSLSITCTVSGFSLTIYGAHWVRQPPGKGLEWLGVIWAGGSTNYNSALMSRLSISKDNSKSQVFLKINSLQTDDTALYYCARDGSSPYYYSMEYWGQGTSVTVSS light: QIILTQSPAIMSASPGEKVSITCSATSSVSYMHWFQQKPGTSPKLWIYSTSNLASGVPVRFSGSGSGTSYSLTISRMEAEDAATYYCQQRSSYPFTFGSGTKLEIKADAAPTVSIFPPSSEQLTSGGASVVCFLNNFYPKDINVKWKIDGSERQNGVLNSWTDQDSKDSTYSMSSTLTLTKDEYERHNSYTCEATHKTSTSPIVKSFNRNEC" result_type=koff readout_units=s⁻¹ reading=0.000612
binder="HEKF Fab fragment (Fab, Fab made by papain digestion) VH: EVQLVESGGGLVQPGGSLRLSCAASGFSLTIYGAHWVRQAPGKGLEWVGVIWAGGSTNYNSALMSRFTISKDNSKNTVYLQMNSLRAEDTAVYYCARDGSSPYYYSMEYWGQGTTVTVSS light: EIVLTQSPATLSLSPGERATLSCSATSSVSYMHWFQQKPGQAPRLLIYSTSNLASGIPARFSGSGSGTDYTLTISSLEPEDFAVYYCQQRSSYPFTFGPGTKLDIKRTVAAPSVFIFPPSDEQLKSGTASVVCLLNNFYPREAKVQWKVDNALQSGNSQESVTEQDSKDSTYSLSSTLTLSKADYEKHKVYACEVTHQGLSSPVTKSFNRGEC" result_type=koff readout_units=s⁻¹ reading=0.000545

Please turn your attention to the following entry.
[Q] Check the records and state koff for HEKA Fab fragment (Fab, Fab made by papain digestion) VH: EVQLVESGGGLVQPGGSLRLSCAASGFSLTIYGAHWVRQAPGKGLEWVGVIWAGGSTNYNSALMSRFTISKDNSKNTVYLQMNSLRAEDTAVYYCARDGSSPYYYSMEYWGQGTTVTVSS light: EIVLTQSPATLSLSPGERATLSCSATSSVSYMHWFQQKPGQAPRLLIYSTSNLASGIPARFSGSGSGTDFTLTISSLEPEDFAVYYCQQRSSYPFTFGPGTKLDIKRTVAAPSVFIFPPSDEQLKSGTASVVCLLNNFYPREAKVQWKVDNALQSGNSQESVTEQDSKDSTYSLSSTLTLSKADYEKHKVYACEVTHQGLSSPVTKSFNRGEC
[A] 0.000482
